Tested on: GM03665 cells (fibroblasts from a subject with Friedreich's ataxia)
experiment-description: RSL-3 Toxicity Assay (RSL-3 Assay)
Format: cell-based, human
conditions: Homo sapiens, Fibroblast; GM03665 cells, RSL-3 2 μM, 24 hours, MTT
Field: EC50. Provide a value for each of the compounds that follow.
// units = µM; emit number, no label

QUERY: # query: EC50 of entry COC1=C(OC)C(=O)C(CCC[Si](C)(C)C)=C(C)C1=O [Compound K]
RESULT: 0.075

QUERY: Another compound to check: COC1=C(OC)C(=O)C(CCCCCCCCCC(F)(F)F)=C(C)C1=O [Compound C]
RESULT: 0.11

QUERY: Another compound to check: COC1=C(OC)C(=O)C(CCCCCC(F)(F)F)=C(C)C1=O [Compound E]
RESULT: 0.135

QUERY: Another compound to check: COC1=C(OC)C(=O)C(CCCCCC(F)F)=C(C)C1=O [Compound F]
RESULT: 0.146

QUERY: Another compound to check: CCCCCCCCCCC1=C(C)C(=O)C(OC)=C(OC)C1=O [Compound D, reference compound]
RESULT: 0.07
